System: HL-60
Assay: NCI tumour cell line growth inhibition, 48 h
Activity calls are given as the source filed them. Rule as the data show it: active = GI50 up to about 1.1 µM and inactive = higher.
Parameter Measured: GI50

Example entries and their recorded answers appear below.
* O=C=NCCCCCCN1C(=O)N2C(c3ccccc3)N(CCCCCCN=C=O)C(=O)N2C1c1ccccc1 (centres undefined) | > 100 µM (inactive)
* O=C(c1ccco1)N1CCCN(C(=O)c2ccco2)C1=S | > 100 µM (inactive)
* Cc1cccc(/C=N/NC(=S)N2CCCCCC2)n1 | < 0.01 µM (active)

Identify GI50 associated with the compound Cc1ccc(C2CC(c3cccc([N+](=O)[O-])c3)=Nc3ccccc3S2)cc1 (centres undefined) 20.1 µM (inactive)
